The origin of these recorded values is ChEMBL document CHEMBL3621074.

test: Half life in human liver microsomes at 1 uM in presence of NADPH by LC-MS/MS method; format: ADME
reportedMetric: half-life at 1 µM (min)

>>> numericreadout("Cc1cc(-c2ccc(OCC(=O)Nc3ccc(-c4cnccn4)cn3)cc2)ccn1")
13

I = Cc1cc(-c2ccc(CCC(=O)Nc3ccc(-c4cnccn4)cn3)cc2)ccn1
II = Cc1cc(-c2ccc(NCC(=O)Nc3ccc(-c4cnccn4)cn3)cc2)ccn1
Consider I and II . Which of these has its half-life at 1 µM at a higher number? Give the chosen item's label as your response.
II

1 = Cc1cc(-c2ccc(OC(C)C(=O)Nc3ccc(-c4cnccn4)cn3)cc2)ccn1 (stereo not given)
2 = Cc1cc(-c2ccc(SCC(=O)Nc3ccc(-c4cnccn4)cn3)cc2)ccn1
Please let me know which one, 1 or 2 , has a lower measured half-life at 1 µM value. Give the chosen item's label as your response.
2
(2: 6.8 min, 1: 41 min)
